Kindly state IC50 of IL-8 secretion, primary human monocytes, 50 nM human IL-36γ, FIG. 5D for each of the entries shown.
- tgt: T1, human IL-36γ, truncated (human, UniProt Q9NZH8 18-169)
- T1 sequence: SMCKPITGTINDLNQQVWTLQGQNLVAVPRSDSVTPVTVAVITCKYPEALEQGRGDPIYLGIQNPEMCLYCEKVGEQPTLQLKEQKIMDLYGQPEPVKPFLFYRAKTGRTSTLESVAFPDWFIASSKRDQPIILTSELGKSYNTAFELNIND
- experimental.protocol: cell-based or functional assay
Numeric answer only, unit nM assumed.

Q: Which IC50 of IL-8 secretion, primary human monocytes, 50 nM human IL-36γ, FIG. 5D value belongs to 144J171G (antibody, V domains shown) VH: EVQLQQSGAELVEPGASVKLSCTASGFNIKDTYINWVKQRPEQGLEWIGRIDPANGYTRYAPKFQGKATITSDTSSNTAYLQLSSLTSEDAAVYSCSTLNYYGSSFFFDFWGQGTTLTVSS VL: QAVVTQESALTTSPGETVTLTCRSSTGAVTTSNYANWVQEKPDHLFTGLIGGTNNRAPGVPARFSGSLIGDKAALTITGAQTEDEAIYFCALWYSNHWVFGGGTKLTVL ?
Ans: 113

Q: Which IC50 of IL-8 secretion, primary human monocytes, 50 nM human IL-36γ, FIG. 5D value belongs to m/h 144D666C (antibody, human IgG1, lambda, V domains shown, Mouse VH/VL joined to human IgG1 constant and human Ig lambda (IGLC2) constant; also called chimeric mouse/human 144D666C) VH: EVQLQQSGAELVKPGASVKLTCTASGFNIKDTYIYWVKQRPAQGLEWIGRIDPANAYTKFDPKFQGKATLTADTSSNTAYLQLSSLTSEDTAVYYCTRFHWYGSSFFFDYWGQGTTLTVSS VL: QAVVTQESALTTSPGETVTLTCRSSTGAVTTSNYANWVQEKPDHLFTGLIGGTDNRPPGVPARFSGSLIGDKAALTITGAQTEDEAIYFCALWYSNLWVFGGGTKLTVLG ?
Ans: 38.1

Q: Which IC50 of IL-8 secretion, primary human monocytes, 50 nM human IL-36γ, FIG. 5D value belongs to 144L180A (antibody, V domains shown) VH: EVQLQQSGAELVKPGASVKLSCTASGFNIKDTYIYWVKQRPEQGLEWIGRIDPANGYTRYDPKFQGKATMTADTSSNTAYLQLSSLTSEDTAVYYCARYEYYDSSFYFDYWGQGTTLTVSS VL: QAVVTQESALTTSPGETVTLTCRSSTGAVTTSNYANWVQEKPDHLFTGLIGGTNNRAPGVPARFSGSLIGDKAALTITGAQTEDEAIYFCALWYSNHLVFGGGTKLTVL ?
Ans: 50.9
